measured-on: SMARCA2 (Homo sapiens)
Construct: endogenous in cells
protocol-description: SMARCA2 HiBiT degradation assay (cellular)
Format: cell-based
experimental-setup: A549, Emax = amount of residual protein remaining in the cell following compound treatment
parameter-measured: Emax
Please don't drop the unit; write it after the number.

Read the entry Cc1ncsc1-c1ccc([C@H](C)NC(=O)[C@@H]2C[C@@H](O)CN2C(=O)[C@@H](NC(=O)CCCCCCCCCCCCC(=O)N2CCN(c3cccc(N4CCCC(Oc5cc(-c6ccccc6O)nnc5N)C4)c3)CC2)C(C)(C)C)cc1 (mixture of isomers) [Example 93] and write its reported Emax.
55%

Read the entry Cc1ncsc1-c1ccc([C@H](C)NC(=O)[C@@H]2C[C@@H](O)CN2C(=O)[C@@H](NC(=O)CCCCCC(=O)N2CCOC3(CCN(c4cc(-c5ccccc5O)nnc4N)CC3)C2)C(C)(C)C)cc1 [Example 43] and write its reported Emax.
23%

Read the entry Cc1ncsc1-c1ccc([C@H](C)NC(=O)[C@@H]2C[C@@H](O)CN2C(=O)[C@@H](NC(=O)CCCCCC(=O)N2CCN(c3ccc(CN4CCCC(Oc5cc(-c6ccccc6O)nnc5N)C4)cc3)CC2)C(C)(C)C)cc1 (mixture of isomers) [Example 40] and write its reported Emax.
46%

Read the entry Cc1ncsc1-c1ccc(CNC(=O)[C@@H]2C[C@@H](O)CN2C(=O)[C@@H](NC(=O)CCCCCCCCC(=O)N2CCN(CCOc3ccc(N4C5CCC4CN(c4cc(-c6ccccc6O)nnc4N)C5)cc3)CC2)C(C)(C)C)cc1 [Example 68] and write its reported Emax.
50%

Read the entry Cc1ncsc1-c1ccc(CNC(=O)[C@@H]2C[C@@H](O)CN2C(=O)[C@@H](NC(=O)CCCCCCCCC(=O)N2CCN(c3ccc(N4CCCC(Oc5cc(-c6ccccc6N)nnc5N)C4)cc3)CC2)C(C)(C)C)cc1 (stereo partly drawn) [Example 100] and write its reported Emax.
62%

Read the entry Cc1ncsc1-c1ccc([C@H](C)NC(=O)[C@@H]2C[C@@H](O)CN2C(=O)[C@@H](NC(=O)CCOCCOCCC(=O)N(C)CC(COc2cc(-c3ccccc3O)nnc2N)c2ccccc2)C(C)(C)C)cc1 (mixture of isomers) [Example 24] and write its reported Emax.
42%

Read the entry Cc1ncsc1-c1ccc(CNC(=O)[C@@H]2C[C@@H](O)CN2C(=O)[C@H](NC(=O)CCCCCCC(=O)N2CCN(CCOc3cccc(N4C5CCC4CN(c4cc(-c6ccccc6O)nnc4N)C5)c3)CC2)C(C)(C)C)cc1 [Example 8] and write its reported Emax.
48%

Read the entry Cc1ncsc1-c1ccc(CNC(=O)[C@@H]2C[C@@H](O)CN2C(=O)[C@@H](NC(=O)CCCCCCCCC(=O)N2CCN(c3cc(-c4ccccc4O)nnc3N)CC23CC3)C(C)(C)C)cc1 [Example 16] and write its reported Emax.
33%

Read the entry Cc1ncsc1-c1ccc([C@H](C)NC(=O)[C@@H]2C[C@@H](O)CN2C(=O)[C@@H](NC(=O)CCOCCOCCC(=O)N2CCN(c3ccc(N4CCCC(Oc5cc(-c6ccccc6O)nnc5N)C4)cc3)CC2)C(C)(C)C)cc1 (mixture of isomers) [Example 34] and write its reported Emax.
47%

====

measured-on: SMARCA2 (Homo sapiens, UniProt P51531)
Construct: endogenous in cells
Sequence (P51531 whole entry): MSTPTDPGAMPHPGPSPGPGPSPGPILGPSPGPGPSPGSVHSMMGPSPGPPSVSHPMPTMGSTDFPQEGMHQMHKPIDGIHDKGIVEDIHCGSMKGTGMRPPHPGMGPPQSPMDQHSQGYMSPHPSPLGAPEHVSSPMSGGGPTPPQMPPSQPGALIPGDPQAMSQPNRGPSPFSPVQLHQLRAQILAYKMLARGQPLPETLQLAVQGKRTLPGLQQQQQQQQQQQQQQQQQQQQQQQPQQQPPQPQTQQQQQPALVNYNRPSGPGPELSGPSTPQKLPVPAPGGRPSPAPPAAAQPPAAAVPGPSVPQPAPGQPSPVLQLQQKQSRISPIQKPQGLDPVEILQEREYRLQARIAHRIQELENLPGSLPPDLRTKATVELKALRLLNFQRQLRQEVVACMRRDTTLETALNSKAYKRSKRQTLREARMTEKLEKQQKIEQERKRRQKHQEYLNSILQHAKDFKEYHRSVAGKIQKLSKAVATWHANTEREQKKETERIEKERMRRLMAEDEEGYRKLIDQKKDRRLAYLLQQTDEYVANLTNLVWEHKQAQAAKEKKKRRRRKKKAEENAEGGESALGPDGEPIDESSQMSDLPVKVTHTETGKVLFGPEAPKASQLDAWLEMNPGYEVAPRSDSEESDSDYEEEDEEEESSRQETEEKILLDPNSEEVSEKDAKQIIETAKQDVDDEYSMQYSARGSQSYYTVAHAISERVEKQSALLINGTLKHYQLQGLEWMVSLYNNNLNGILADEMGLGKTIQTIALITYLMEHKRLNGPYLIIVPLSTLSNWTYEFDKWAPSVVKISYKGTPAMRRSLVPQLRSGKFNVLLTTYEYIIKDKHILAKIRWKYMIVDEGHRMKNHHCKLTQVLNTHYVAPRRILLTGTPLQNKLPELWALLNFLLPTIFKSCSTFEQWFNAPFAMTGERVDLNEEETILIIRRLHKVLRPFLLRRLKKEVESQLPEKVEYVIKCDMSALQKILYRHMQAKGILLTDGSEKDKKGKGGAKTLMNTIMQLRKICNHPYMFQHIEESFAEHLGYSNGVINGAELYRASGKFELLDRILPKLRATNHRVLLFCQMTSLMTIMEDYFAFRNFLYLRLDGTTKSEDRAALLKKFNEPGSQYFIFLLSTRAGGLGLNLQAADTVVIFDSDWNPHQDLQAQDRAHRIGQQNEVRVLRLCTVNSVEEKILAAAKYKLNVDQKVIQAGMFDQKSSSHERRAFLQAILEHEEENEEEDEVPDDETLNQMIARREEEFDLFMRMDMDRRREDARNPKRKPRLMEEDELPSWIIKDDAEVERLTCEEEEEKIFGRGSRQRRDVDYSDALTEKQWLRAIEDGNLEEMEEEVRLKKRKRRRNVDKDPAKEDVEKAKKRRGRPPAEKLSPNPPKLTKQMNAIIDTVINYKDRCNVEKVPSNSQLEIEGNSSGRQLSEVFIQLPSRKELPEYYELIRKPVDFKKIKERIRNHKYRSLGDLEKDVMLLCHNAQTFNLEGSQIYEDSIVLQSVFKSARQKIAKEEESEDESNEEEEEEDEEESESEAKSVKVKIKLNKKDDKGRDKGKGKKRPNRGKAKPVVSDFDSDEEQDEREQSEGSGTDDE
protocol-description: SMARCA2 HiBiT degradation assay (cellular)
Format: cell-based
experimental-setup: A549, Emax = amount of residual protein remaining in the cell following compound treatment
parameter-measured: Emax
Please don't drop the unit; write it after the number.

Read the entry Cc1ncsc1-c1ccc(CNC(=O)[C@@H]2C[C@@H](O)CN2C(=O)[C@@H](NC(=O)CCCCCCCCC(=O)N2CCN(CCOc3cccc(N4CCOC5(CCN(c6cc(-c7ccccc7O)nnc6N)CC5)C4)c3)CC2)C(C)(C)C)cc1 [Example 52] and write its reported Emax.
56%

Read the entry Cc1ncsc1-c1ccc([C@H](C)NC(=O)[C@@H]2C[C@@H](O)CN2C(=O)[C@@H](NC(=O)CCCCCCCCC(=O)N(C)CCCN(C)c2ccc(CCOc3cc(-c4ccccc4O)nnc3N)cc2)C(C)(C)C)cc1 (racemic) [Example 28] and write its reported Emax.
46%
